FYI, the data here is from patent US20240132578A1.

Listing of entries alongside the reported IC50 (µg/mL), pseudovirus neutralization.
target: HIV-1 JRCSF Env (clade B pseudovirus) (HIV-1, UniProt P20871 32-848); experiment: cell-based or functional assay

{"BINDER": "1495_C14 (PGC14) (antibody, human IgG1, lambda, V domains shown) VH: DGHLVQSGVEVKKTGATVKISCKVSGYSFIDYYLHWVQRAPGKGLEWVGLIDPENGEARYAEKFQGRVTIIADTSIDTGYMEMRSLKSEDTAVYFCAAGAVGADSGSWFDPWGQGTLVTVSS VL: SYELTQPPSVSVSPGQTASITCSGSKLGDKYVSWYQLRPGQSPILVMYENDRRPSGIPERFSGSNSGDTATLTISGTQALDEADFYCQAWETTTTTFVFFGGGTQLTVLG", "IC50 (µg/mL), pseudovirus neutralization": "> 50 µg/mL"}
{"BINDER": "1460_G14 (PGG14) (antibody, human IgG1, kappa, V domains shown) VH: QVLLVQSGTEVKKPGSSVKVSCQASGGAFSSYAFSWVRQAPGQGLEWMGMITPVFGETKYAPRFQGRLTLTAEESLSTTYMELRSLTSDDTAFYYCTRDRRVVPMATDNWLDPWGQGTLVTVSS VL: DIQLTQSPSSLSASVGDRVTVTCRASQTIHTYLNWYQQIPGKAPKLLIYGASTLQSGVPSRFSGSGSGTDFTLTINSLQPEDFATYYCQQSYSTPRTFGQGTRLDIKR", "IC50 (µg/mL), pseudovirus neutralization": "> 50 µg/mL"}
{"BINDER": "1456_P20 (PG20) (antibody, human IgG1, kappa, V domains shown) VH: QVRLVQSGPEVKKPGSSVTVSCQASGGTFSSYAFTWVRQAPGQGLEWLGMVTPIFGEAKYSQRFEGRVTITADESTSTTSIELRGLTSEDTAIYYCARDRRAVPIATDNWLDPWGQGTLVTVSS VL: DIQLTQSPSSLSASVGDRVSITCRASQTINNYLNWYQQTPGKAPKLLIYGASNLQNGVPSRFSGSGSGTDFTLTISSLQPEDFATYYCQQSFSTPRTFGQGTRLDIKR", "IC50 (µg/mL), pseudovirus neutralization": "> 50 µg/mL"}
{"BINDER": "1443_C16 (PG16) (TCN-116) (antibody, V domains shown) VH: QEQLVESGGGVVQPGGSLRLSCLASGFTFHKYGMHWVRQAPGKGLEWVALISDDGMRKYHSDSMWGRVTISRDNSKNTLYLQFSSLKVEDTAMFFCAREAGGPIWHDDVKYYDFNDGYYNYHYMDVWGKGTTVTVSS VL: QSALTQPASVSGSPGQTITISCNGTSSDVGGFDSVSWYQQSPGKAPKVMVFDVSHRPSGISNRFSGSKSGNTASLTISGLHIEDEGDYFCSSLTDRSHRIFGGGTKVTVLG", "IC50 (µg/mL), pseudovirus neutralization": "< 0.0025 µg/mL"}

Recorded IC50 (µg/mL), pseudovirus neutralization of 1496_C09 (PG9) (TCN-109) (antibody, V domains shown) VH: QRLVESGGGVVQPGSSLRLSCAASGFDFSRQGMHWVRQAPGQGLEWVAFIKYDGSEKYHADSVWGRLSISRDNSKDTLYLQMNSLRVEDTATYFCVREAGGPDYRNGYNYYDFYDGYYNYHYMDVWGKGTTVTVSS VL: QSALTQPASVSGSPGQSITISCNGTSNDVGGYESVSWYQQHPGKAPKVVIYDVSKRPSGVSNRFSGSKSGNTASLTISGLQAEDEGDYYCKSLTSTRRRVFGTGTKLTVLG , please.
< 0.0025 µg/mL
